Exercise: state measured normalized RNA/DNA level without ligand (log10) for each of the variants provided.
B1: library; a variant is named by its letters at N, in order (parent)
chain: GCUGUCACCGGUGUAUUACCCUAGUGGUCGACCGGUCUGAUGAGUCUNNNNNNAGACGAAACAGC

variants of: B1; assay: normalized RNA/DNA level without ligand (relative to sTRSVctl = 100) (log10 (% of sTRSVctl)); ligand: hypoxanthine (xanthine aptamer); higher = less ribozyme self-cleavage, higher mRNA level; details: HEK293T, reporter: mCherry (pCS4076), ligand present: no
Please reply with the value in numeric form only.

Q) Please give the measured normalized RNA/DNA level without ligand (log10) for this variant: GCUGUCACCGGUGUAUUACCCUAGUGGUCGACCGGUCUGAUGAGUCUAUCCGAAGACGAAACAGC [AUCCGA]
A) 1.76

Q) I'd like to know its normalized RNA/DNA level without ligand (log10). The variant in question is GCUGUCACCGGUGUAUUACCCUAGUGGUCGACCGGUCUGAUGAGUCUCUUCACAGACGAAACAGC [CUUCAC]
A) 1.89

Q) State the recorded normalized RNA/DNA level without ligand (log10) for this entry: GCUGUCACCGGUGUAUUACCCUAGUGGUCGACCGGUCUGAUGAGUCUUAGAGCAGACGAAACAGC [UAGAGC]
A) 1.71

The reported measurements were obtained from the supplement of paper PMC6757056.
